system-name: androgen receptor (AR) (Homo sapiens, UniProt P10275, T878A)
Construct: LNCaP cells expressing ARR2PB-FireflyLuc and CMV-RenillaLuc; endogenous in cells; host or cells: LNCaP cells carrying ARR2PB-FireflyLuc and CMV-RenillaLuc reporters
Sequence (P10275 whole entry T878A): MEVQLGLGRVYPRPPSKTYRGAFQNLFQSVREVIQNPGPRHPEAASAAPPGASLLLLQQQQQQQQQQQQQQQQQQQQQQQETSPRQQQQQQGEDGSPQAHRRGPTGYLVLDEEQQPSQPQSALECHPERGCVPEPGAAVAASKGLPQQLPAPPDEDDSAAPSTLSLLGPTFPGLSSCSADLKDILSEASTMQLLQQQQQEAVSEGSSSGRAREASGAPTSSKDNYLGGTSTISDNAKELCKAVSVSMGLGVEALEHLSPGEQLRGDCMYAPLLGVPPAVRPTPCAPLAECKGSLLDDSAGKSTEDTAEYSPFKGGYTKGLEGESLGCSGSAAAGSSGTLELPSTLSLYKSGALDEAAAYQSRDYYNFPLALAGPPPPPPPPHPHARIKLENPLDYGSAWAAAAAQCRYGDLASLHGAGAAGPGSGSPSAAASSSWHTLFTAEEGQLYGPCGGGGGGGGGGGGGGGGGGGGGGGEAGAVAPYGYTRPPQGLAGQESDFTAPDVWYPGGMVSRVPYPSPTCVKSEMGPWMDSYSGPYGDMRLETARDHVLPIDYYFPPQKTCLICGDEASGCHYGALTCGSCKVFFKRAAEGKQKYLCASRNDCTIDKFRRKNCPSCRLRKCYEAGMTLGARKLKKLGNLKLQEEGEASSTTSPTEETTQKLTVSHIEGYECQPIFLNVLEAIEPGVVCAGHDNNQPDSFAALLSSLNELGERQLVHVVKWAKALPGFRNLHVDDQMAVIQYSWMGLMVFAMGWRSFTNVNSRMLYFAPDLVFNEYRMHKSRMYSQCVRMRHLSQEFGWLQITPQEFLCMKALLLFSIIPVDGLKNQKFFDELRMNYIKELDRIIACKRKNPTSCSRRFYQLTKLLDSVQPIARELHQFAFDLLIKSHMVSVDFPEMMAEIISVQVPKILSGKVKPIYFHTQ
procedure-summary: AR reporter assay in LNCaP cells expressing ARR2PB-FireflyLuc and CMV-RenillaLuc, antagonist mode (% remaining activity, IC50)
Format: cell-based
measurement-setup: 48 h at 37° C., class symbols A-D, read-out: IC50
pIC50: −log10 of the molar value.
measured-parameter: pIC50

Check out these entries, answers already filled in.
1) CC1(CO)NC(=O)c2ccc(-c3c[nH]c4c(C#N)cccc34)nc21 (stereo not drawn) | < 5.00
2) CC1(C)NC(=O)c2ccc(-c3n[nH]c4cc(F)c(F)cc34)cc21 | < 5.00
3) Cc1nc(-c2c[nH]c3c(C#N)cccc23)cnc1NC1CCNCC1 | < 5.00
4) COc1nc(-c2c[nH]c3c(C#N)cccc23)cnc1N(C)C1CCN(C(C)=O)C1 (stereo not drawn) | 6.00 to 7.00
5) Cc1nc(-c2c[nH]c3c(C#N)cccc23)cnc1O[C@@H]1CN[C@H](C)C1 | < 5.00

Field request: pIC50 | item: Cc1nc(-c2c[nH]c3c(C#N)cccc23)cnc1NC1CCN(C)C1 (stereo not drawn) 6.00 to 7.00

Item under review: "Cc1nc(-c2c[nH]c3c(C#N)cccc23)cnc1OCC1(O)CC1" . Reported pIC50? < 5.00

Need pIC50 of "Cc1cccc2c(-c3ccc4c(n3)C(C)(C)NC4=O)c[nH]c12" , thanks. 6.00 to 7.00

Endpoint output: pIC50 of COc1nc(-c2c[nH]c3c(C#N)cccc23)cnc1OC1CCN(C(C)=O)C1 (stereo not drawn) [Compound 306] . Value? 5.00 to 6.00
